Source: patent US20170145104A1

- target-or-system: T1, human GITR, membrane bound (on activated human T cells and on 3A9-hGITR cells) (human, UniProt Q9Y5U5 26-241)
- T1 construct: whole, on cells; the cell is named under assay; also called huGITR; TNFRSF18
- T1 sequence (looked up): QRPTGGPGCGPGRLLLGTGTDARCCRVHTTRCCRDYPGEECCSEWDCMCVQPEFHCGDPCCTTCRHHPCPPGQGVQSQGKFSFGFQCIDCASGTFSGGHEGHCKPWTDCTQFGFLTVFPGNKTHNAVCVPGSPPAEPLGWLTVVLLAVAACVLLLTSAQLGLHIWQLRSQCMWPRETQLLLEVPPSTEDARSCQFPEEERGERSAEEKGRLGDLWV
- assay-summary: FACS binding to 3A9-hGITR transfectant, Geo-MFI (PE); EC50 table beside the curves; unit from the axis
Returns: string. Value is class 1 if measured EC50 is below 0.6 nM, and class 0 if it is greater than or equal to it.

[
  {
    "binder": "28F3 VH CDR3 mutant M98I (antibody, V domains shown, also called C6) VH: QVQLVESGGGVVQPGRSLRLSCAASGFTFSSYGMHWVRQAPGKGLEWVAVIWYEGSNKYYADSVKGRFTISRDNSKNTLYLQMNSLRAEDTAVYYCARGGSIVRGDYYYGMDVWGQGTTVTVSS VL: AIQLTQSPSSLSASVGDRVTITCRASQGISSALAWYQQKPGKAPKLLIYDASSLESGVPSRFSGSGSGTDFTLTISSLQPEDFATYYCQQFNSYPYTFGQGTKLEIK",
    "assigned-label": "class 0"
  },
  {
    "binder": "28F3 VH CDR3 mutant M98A, D106E (antibody, V domains shown, also called F5) VH: QVQLVESGGGVVQPGRSLRLSCAASGFTFSSYGMHWVRQAPGKGLEWVAVIWYEGSNKYYADSVKGRFTISRDNSKNTLYLQMNSLRAEDTAVYYCARGGSAVRGEYYYGMDVWGQGTTVTVSS VL: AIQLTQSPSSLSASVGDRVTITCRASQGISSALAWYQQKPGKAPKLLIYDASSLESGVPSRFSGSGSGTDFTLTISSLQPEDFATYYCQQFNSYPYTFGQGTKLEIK",
    "assigned-label": "class 1"
  },
  {
    "binder": "28F3 VH CDR3 mutant M98F, D106E, M111F (antibody, V domains shown, also called B4) VH: QVQLVESGGGVVQPGRSLRLSCAASGFTFSSYGMHWVRQAPGKGLEWVAVIWYEGSNKYYADSVKGRFTISRDNSKNTLYLQMNSLRAEDTAVYYCARGGSFVRGEYYYGFDVWGQGTTVTVSS VL: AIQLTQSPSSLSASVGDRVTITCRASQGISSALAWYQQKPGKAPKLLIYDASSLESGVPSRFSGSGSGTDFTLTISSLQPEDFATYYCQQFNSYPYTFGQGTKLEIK",
    "assigned-label": "class 0"
  },
  {
    "binder": "28F3 VH CDR3 mutant M98V (antibody, V domains shown, also called H5) VH: QVQLVESGGGVVQPGRSLRLSCAASGFTFSSYGMHWVRQAPGKGLEWVAVIWYEGSNKYYADSVKGRFTISRDNSKNTLYLQMNSLRAEDTAVYYCARGGSVVRGDYYYGMDVWGQGTTVTVSS VL: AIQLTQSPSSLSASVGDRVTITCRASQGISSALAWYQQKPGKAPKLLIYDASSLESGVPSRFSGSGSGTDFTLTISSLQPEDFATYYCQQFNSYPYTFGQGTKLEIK",
    "assigned-label": "class 1"
  },
  {
    "binder": "28F3 VH CDR3 mutant M98V, D106E (antibody, V domains shown, also called H4) VH: QVQLVESGGGVVQPGRSLRLSCAASGFTFSSYGMHWVRQAPGKGLEWVAVIWYEGSNKYYADSVKGRFTISRDNSKNTLYLQMNSLRAEDTAVYYCARGGSVVRGEYYYGMDVWGQGTTVTVSS VL: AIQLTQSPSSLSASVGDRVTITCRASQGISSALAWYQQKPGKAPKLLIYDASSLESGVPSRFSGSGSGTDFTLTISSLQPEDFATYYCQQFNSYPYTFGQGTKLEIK",
    "assigned-label": "class 1"
  },
  {
    "binder": "28F3 VH CDR3 mutant M98Y, D106E, M111F (antibody, V domains shown, also called G4) VH: QVQLVESGGGVVQPGRSLRLSCAASGFTFSSYGMHWVRQAPGKGLEWVAVIWYEGSNKYYADSVKGRFTISRDNSKNTLYLQMNSLRAEDTAVYYCARGGSYVRGEYYYGFDVWGQGTTVTVSS VL: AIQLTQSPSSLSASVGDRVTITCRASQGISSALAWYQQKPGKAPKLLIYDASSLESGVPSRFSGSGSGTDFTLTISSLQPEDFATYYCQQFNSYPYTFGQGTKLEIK",
    "assigned-label": "class 0"
  },
  {
    "binder": "Non mutated 28F3 (control of the VH CDR3 mutant panel) (antibody, V domains shown, also called H6) VH: QVQLVESGGGVVQPGRSLRLSCAASGFTFSSYGMHWVRQAPGKGLEWVAVIWYEGSNKYYADSVKGRFTISRDNSKNTLYLQMNSLRAEDTAVYYCARGGSMVRGDYYYGMDVWGQGTTVTVSS VL: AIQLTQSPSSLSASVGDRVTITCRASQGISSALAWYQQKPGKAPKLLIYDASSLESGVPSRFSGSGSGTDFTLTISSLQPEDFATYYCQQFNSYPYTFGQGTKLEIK",
    "assigned-label": "class 1"
  },
  {
    "binder": "28F3 VH CDR3 mutant M98S (antibody, V domains shown, also called E6) VH: QVQLVESGGGVVQPGRSLRLSCAASGFTFSSYGMHWVRQAPGKGLEWVAVIWYEGSNKYYADSVKGRFTISRDNSKNTLYLQMNSLRAEDTAVYYCARGGSSVRGDYYYGMDVWGQGTTVTVSS VL: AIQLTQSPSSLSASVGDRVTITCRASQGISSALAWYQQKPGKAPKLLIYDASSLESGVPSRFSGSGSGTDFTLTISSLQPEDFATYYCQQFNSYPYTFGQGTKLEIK",
    "assigned-label": "class 0"
  },
  {
    "binder": "28F3 VH CDR3 mutant M98L, D106E, M111F (antibody, V domains shown, also called C4) VH: QVQLVESGGGVVQPGRSLRLSCAASGFTFSSYGMHWVRQAPGKGLEWVAVIWYEGSNKYYADSVKGRFTISRDNSKNTLYLQMNSLRAEDTAVYYCARGGSLVRGEYYYGFDVWGQGTTVTVSS VL: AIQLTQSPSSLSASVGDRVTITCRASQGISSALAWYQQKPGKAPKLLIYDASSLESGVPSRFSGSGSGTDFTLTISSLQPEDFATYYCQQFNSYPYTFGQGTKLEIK",
    "assigned-label": "class 0"
  },
  {
    "binder": "28F3 VH CDR3 mutant M98Q, D106E, M111F (antibody, V domains shown, also called D4) VH: QVQLVESGGGVVQPGRSLRLSCAASGFTFSSYGMHWVRQAPGKGLEWVAVIWYEGSNKYYADSVKGRFTISRDNSKNTLYLQMNSLRAEDTAVYYCARGGSQVRGEYYYGFDVWGQGTTVTVSS VL: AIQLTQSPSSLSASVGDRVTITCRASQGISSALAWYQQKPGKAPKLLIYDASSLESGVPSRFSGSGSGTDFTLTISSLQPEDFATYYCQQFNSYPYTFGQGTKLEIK",
    "assigned-label": "class 0"
  }
]
